Origin of the recorded values: patent US20210269496A1

Target: T1, CD25 (Homo sapiens (Human), UniProt P01589 22-240)
T1 construct: also called IL-2R alpha chain
T1 sequence: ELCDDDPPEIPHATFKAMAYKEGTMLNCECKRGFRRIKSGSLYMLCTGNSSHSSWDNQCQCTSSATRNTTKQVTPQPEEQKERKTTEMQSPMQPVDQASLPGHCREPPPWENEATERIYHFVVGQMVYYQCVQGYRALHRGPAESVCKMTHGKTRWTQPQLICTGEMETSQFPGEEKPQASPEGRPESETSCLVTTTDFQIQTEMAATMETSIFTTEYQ
Assay: ELISA, CD25 coated at 0.5 µg/mL, detection with biotinylated anti-IL-2 polyclonal
pEC50: −log10 of the molar value.
measure: pEC50

binder: SEQ ID NO 55 (Fc fusion, also called IL-2 L80I N88D V69A, C125S Q74P-G4Sx4-Fc) APTSSSTKKTQLQLEHLLLDLQMILNGINNYKNPKLTRMLTFKFYMPKKATELKHLQCLEEELKPLEEALNLAPSKNFHIRPRDLISDINVIVLELKGSETTFMCEYADETATIVEFLNRWITFSQSIISTLTGGGGSGGGGSGGGGSGGGGSDKTHTCPPCPAPEAAGAPSVFLFPPKPKDTLMISRTPEVTCVVVDVSHEDPEVKFNWYVDGVEVHNAKTKPREEQYNSTYRVVSVLTVLHQDWLNGKEYKCKVSNKALPAPIEKTISKAKGQPREPQVYTLPPSREEMTKNQVSLTCLVKGFYPSDIAVEWESNGQPENNYKTTPPVLDSDGSFFLYSKLTVDKSRWQQGNVFSCSVMHEALHNHYTQKSLSLSPG
pEC50: > 9.00

// below: pEC50 requested for another binder
The measured pEC50 associated with SEQ ID NO 54 (Fc fusion, also called IL-2 L56I N88D V69A, Q74P, C125S-G4Sx4-Fc) APTSSSTKKTQLQLEHLLLDLQMILNGINNYKNPKLTRMLTFKFYMPKKATELKHIQCLEEELKPLEEALNLAPSKNFHLRPRDLISDINVIVLELKGSETTFMCEYADETATIVEFLNRWITFSQSIISTLTGGGGSGGGGSGGGGSGGGGSDKTHTCPPCPAPEAAGAPSVFLFPPKPKDTLMISRTPEVTCVVVDVSHEDPEVKFNWYVDGVEVHNAKTKPREEQYNSTYRVVSVLTVLHQDWLNGKEYKCKVSNKALPAPIEKTISKAKGQPREPQVYTLPPSREEMTKNQVSLTCLVKGFYPSDIAVEWESNGQPENNYKTTPPVLDSDGSFFLYSKLTVDKSRWQQGNVFSCSVMHEALHNHYTQKSLSLSPG reads > 9.00
